From: ChEMBL document CHEMBL4689842

- System: HEK-293T
- assayExplanation: Multiplex assay against HEK293T;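 further: share of the cells with healthy nuclei that show this phenotype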
- Type: toxicity, cell-based
- conditionParameters: human, 24 h, 10 µM, compound concentration 10 uM, replicate 2
Label Condition met when Population Tubulin-Different-Phenotype (%) is at or above 80%; otherwise label Condition not met.

C[C@@H](Oc1cc(-n2cnc3ccc(CN4CCN(C)CC4)cc32)sc1C(N)=O)c1ccccc1C(F)(F)F [GSK-461364] ... Condition not met
Cc1c(Nc2ccc(S(=O)(=O)N3CCN(C)CC3)cc2F)nc2ccc(Nc3cnn(C4CC4)c3)cn2c1=O ... Condition not met
CC(C)[C@H](CO)Nc1nc(Nc2cccc(Cl)c2)c2ncn(C(C)C)c2n1 [PURVALANOLA] ... Condition met
Cc1ccc(S(=O)(=O)NC2c3ccccc3Oc3ccccc32)cc1 ... Condition not met
CC(/C=C1\SC(=S)N(CCCC(=O)Nc2ccc(C(=O)O)c(O)c2)C1=O)=C\c1ccccc1 ... Condition not met

Now examine the next entry.
Identify whether the reported Population Tubulin-Different-Phenotype (%) of the following compound is 80% or greater: CC[C@@H]1C(=O)N(C)c2cnc(Nc3ccc(C(=O)NC4CCN(C)CC4)cc3OC)nc2N1C1CCCC1 [BI-2536]
Condition met
